pKd for assorted molecules
Target: human ΔF508-CFTR (Homo sapiens, UniProt P13569, DEL508-508)
Sequence (P13569 with tags, fused parts or gaps DEL508-508): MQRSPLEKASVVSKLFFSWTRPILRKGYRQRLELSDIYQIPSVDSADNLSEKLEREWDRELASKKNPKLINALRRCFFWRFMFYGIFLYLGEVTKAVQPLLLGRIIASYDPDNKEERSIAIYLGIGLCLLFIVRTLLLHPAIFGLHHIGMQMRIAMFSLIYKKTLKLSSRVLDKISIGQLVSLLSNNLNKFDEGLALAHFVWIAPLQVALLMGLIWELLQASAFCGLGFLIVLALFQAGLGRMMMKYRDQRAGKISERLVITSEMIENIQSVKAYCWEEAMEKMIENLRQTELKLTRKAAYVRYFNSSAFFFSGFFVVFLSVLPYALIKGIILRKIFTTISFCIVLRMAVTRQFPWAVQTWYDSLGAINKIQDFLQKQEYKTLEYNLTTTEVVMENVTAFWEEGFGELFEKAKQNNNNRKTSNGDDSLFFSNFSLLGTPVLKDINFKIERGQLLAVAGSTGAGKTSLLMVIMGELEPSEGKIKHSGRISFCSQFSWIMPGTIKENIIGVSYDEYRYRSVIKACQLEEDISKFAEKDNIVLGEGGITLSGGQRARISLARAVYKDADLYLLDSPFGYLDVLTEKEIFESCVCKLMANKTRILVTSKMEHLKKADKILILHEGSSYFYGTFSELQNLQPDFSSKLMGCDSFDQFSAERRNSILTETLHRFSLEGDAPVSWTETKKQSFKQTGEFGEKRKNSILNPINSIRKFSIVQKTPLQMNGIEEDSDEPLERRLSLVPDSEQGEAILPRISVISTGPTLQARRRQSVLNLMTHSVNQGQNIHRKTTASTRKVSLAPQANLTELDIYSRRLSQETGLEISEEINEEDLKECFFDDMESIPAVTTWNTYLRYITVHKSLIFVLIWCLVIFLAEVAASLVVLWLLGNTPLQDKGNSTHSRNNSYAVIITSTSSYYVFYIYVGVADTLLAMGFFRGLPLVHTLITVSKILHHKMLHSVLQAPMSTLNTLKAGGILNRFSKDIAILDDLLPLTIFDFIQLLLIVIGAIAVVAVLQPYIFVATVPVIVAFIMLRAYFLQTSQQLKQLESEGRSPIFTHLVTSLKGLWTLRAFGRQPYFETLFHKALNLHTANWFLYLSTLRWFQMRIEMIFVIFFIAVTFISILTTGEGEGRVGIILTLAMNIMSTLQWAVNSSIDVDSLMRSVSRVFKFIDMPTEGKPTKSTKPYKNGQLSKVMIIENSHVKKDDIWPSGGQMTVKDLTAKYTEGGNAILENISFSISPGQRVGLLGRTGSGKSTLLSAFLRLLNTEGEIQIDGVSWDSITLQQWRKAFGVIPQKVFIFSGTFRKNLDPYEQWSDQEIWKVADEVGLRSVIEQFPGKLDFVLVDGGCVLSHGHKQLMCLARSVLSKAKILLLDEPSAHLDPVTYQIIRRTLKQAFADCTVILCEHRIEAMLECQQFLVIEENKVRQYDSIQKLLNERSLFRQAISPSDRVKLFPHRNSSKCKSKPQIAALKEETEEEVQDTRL
Assay: Fluorescence (YFP-H148Q/I152L) I− influx assay of ΔF508-CFTR potentiator activity in FRT cells
Details: FRT cells, 27° C. rescue, forskolin 20 μM; read-out: Kd for activation of ΔF508-CFTR from the fluorescence assay
Procedure: Clonal populations of Fischer rat thyroid (FRT) epithelial cells stably co-expressing human ΔF508-CFTR and the high-sensitivity halide-sensing green fluorescent analog YFP-H148Q/I152L (Galietta et al., A.S. (2001) FEBS Lett. 499, 220-224) were generated by liposome transfection and limiting dilution with Zeocin/G418 selection. More than 100 clones were evaluated for high fluorescence and ΔF508-CFTR plasma membrane targeting after growth at 27° C. for 24 hours. […]
In plain terms, pKd is the concentration in mol/L turned into minus its base-10 logarithm.

Check out these entries, answers already filled in.
Consider the molecule `NC(=O)c1oc2ccccc2c1NC(=O)c1ccccc1` and give its measured pKd. 6.19

Consider the molecule `COc1ccc(-n2c(C)cc(C=C3C(=O)NC(=O)N(Cc4ccco4)C3=O)c2C)cc1` and give its measured pKd. 5.89

Consider the molecule `COC(=O)C1=C(C)NC(C)=C(C(=O)OC)C1c1ccc(C(C)C)cc1` and give its measured pKd. 7.00

Next:
Consider the molecule `NC(=O)c1c(NC(=O)c2ccccc2Cl)sc2c1CCCC2` and give its measured pKd. 6.74

Consider the molecule `CC(C)(C)c1ccc(Oc2c(N)ccc3c2C(=O)c2ccccc2C3=O)cc1` and give its measured pKd. 6.06

Consider the molecule `Cc1cc(Br)c2[nH]c3c(c2c1)CCCC3=O` and give its measured pKd. 6.15
